tested on: RSV-Fluc (Respiratory Syncytial virus strain A2 containing the firefly luciferase reporter); test: microbe, parasite or virus in culture; format: cell-based; conditions: human respiratory syncytial virus, 72 h, NHBE cells, three days
attribute_measured: pEC50
Give bare numbers, as −log10 of the molar value.

Go through the items and report each one's pEC50.
1. CC(C)CC(=O)OC[C@H]1O[C@@](C#N)(c2ccc3c(N)ncnn23)[C@H](O)[C@@H]1O
2. CC(C)C(=O)OC[C@H]1O[C@@](C#N)(c2ccc3c(N)ncnn23)[C@H](OC(=O)C(C)C)[C@@H]1OC(=O)C(C)C

RESULT:
6.24
6.41

###

experiment: in vivo; conditions: male, Sprague-Dawley, rat, po, 10 mg/kg, Reference Compound A AUCinf.
attribute_measured: AUC(0-inf) (µM·h)
Give bare numbers, in µM·h.

QUERY: Output AUC(0-inf) of N#C[C@@]1(c2ccc3c(N)ncnn23)O[C@H](CO)[C@@H](O)[C@H]1O [Reference Compound A]
RESULT: 2.36

###

settings: male, Sprague-Dawley, rat, in vivo, po, 8 mg/kg
attribute_measured: Cmax (µM)
Answers are plain numbers, in µM.

QUERY: Output Cmax of CC(C)C(=O)OC[C@H]1O[C@@](C#N)(c2ccc3c(N)ncnn23)[C@H](OC(=O)C(C)C)[C@@H]1OC(=O)C(C)C
RESULT: 5.83

###

assay: in vitro; details: human, CC50, F3 HAE, primary HAE donor F3, 72 hours, PrestoBlue
attribute_measured: CC50 (µM)
Give bare numbers, in µM.

QUERY: Output CC50 of CC(C)C(=O)OC[C@H]1O[C@@](C#N)(c2ccc3c(N)ncnn23)[C@H](OC(=O)C(C)C)[C@@H]1OC(=O)C(C)C
RESULT: 43.8

###

conditions: read-out: Reference Compound A Cmax; ferrets, single dose; Reference Compound A i.v. 20 mg/kg
attribute_measured: Cmax (µM)
Answers are plain numbers, in µM.

QUERY: Output Cmax of N#C[C@@]1(c2ccc3c(N)ncnn23)O[C@H](CO)[C@@H](O)[C@H]1O [Reference Compound A]
RESULT: 54.2

###

test: in vitro; type: in vitro ADME, Human; details: human, s9, pH 7.4
Would you kindly list half-life at 2 μM for each of these compounds?
One number for each entry, in h.

Go through the items and report each one's half-life at 2 μM.
1. CC(C)C(=O)OC[C@H]1O[C@@](C#N)(c2ccc3c(N)ncnn23)[C@H](O)[C@@H]1O
2. CC(C)C(=O)OC[C@H]1O[C@@](C#N)(c2ccc3c(N)ncnn23)[C@H](OC(=O)C(C)C)[C@@H]1OC(=O)C(C)C

RESULT:
1.15
0.00617

###

test: in vivo; details: male, Sprague-Dawley, rat, po, 5 mg/kg, Reference Compound A Cmax
attribute_measured: Cmax (nM)
One number for each entry, in nM.

QUERY: Output Cmax of N#C[C@@]1(c2ccc3c(N)ncnn23)O[C@H](CO)[C@@H](O)[C@H]1O [Reference Compound A]
RESULT: 875

###

details: male, Sprague-Dawley, rat, in vivo, po, 6 mg/kg
attribute_measured: Cmax
Show the value, then the unit it is measured in.

QUERY: Output Cmax of CC(C)C(=O)OC[C@H]1O[C@@](C#N)(c2ccc3c(N)ncnn23)[C@H](O)[C@@H]1O [Compound 15]
RESULT: 2100 nM

###

experiment: in vitro; assay type: cell-based; details: human; host cells A549-ACE2; read-out: CC50, A549-ACE2
attribute_measured: CC50

Known CC50 results, listed for orientation:
INSERT INTO results (molecule, observed_result) VALUES
  ('N#C[C@@]1(c2ccc3c(N)ncnn23)O[C@H](CO)[C@@H](O)[C@H]1O [Reference Compound A]', '> 50 µM'),
  ('CC(C)C(=O)OC[C@H]1O[C@@](C#N)(c2ccc3c(N)ncnn23)[C@H](OC(=O)C(C)C)[C@@H]1OC(=O)C(C)C', '> 50 µM');

Proceed to the following item.
QUERY: Output CC50 of CCC(CC)COC(=O)[C@H](C)N[P@](=O)(OC[C@H]1O[C@@](C#N)(c2ccc3c(N)ncnn23)[C@H](O)[C@@H]1O)Oc1ccccc1
RESULT: > 16.7 µM

###

assay: in vitro; conditions: human
attribute_measured: CC50

QUERY: Output CC50 of N#C[C@@]1(c2ccc3c(N)ncnn23)O[C@H](CO)[C@@H](O)[C@H]1O [Reference Compound A]
RESULT: > 100 µM

###

system: RSV-Fluc (Respiratory Syncytial virus strain A2 containing the firefly luciferase reporter); assay: microbe, parasite or virus in culture; format: cell-based; settings: human respiratory syncytial virus, 72 h, NHBE cells, three days
attribute_measured: EC50 (nM)
Numbers only, in nM.

INSERT INTO results (compound, observed_result) VALUES
  ('CCCCCCCC(=O)OC[C@H]1O[C@@](C#N)(c2ccc3c(N)ncnn23)[C@H](O)[C@@H]1O', 841);

Go through the items and report each one's EC50.
1. CCCC(CCC)C(=O)OC[C@H]1O[C@@](C#N)(c2ccc3c(N)ncnn23)[C@H](O)[C@@H]1O
2. CC(=O)OC[C@H]1O[C@@](C#N)(c2ccc3c(N)ncnn23)[C@H](OC(C)=O)[C@@H]1OC(C)=O
3. CCC(CC)C(=O)OC[C@H]1O[C@@](C#N)(c2ccc3c(N)ncnn23)[C@H](O)[C@@H]1O

RESULT:
224
287
261

Go through the items and report each one's EC50.
1. CC(C)C(=O)O[C@H]1[C@@H](OC(=O)C(C)C)[C@](C#N)(c2ccc3c(N)ncnn23)O[C@@H]1COC(=O)[C@@H](N)C(C)C
2. CC(=O)OC[C@H]1O[C@@](C#N)(c2ccc3c(N)ncnn23)[C@H](O)[C@@H]1O
3. N#C[C@@]1(c2ccc3c(N)ncnn23)O[C@H](COC(=O)C2CCCC2)[C@@H](O)[C@H]1O

RESULT:
1: 169; 2: 2370; 3: 1800

###

experiment: in vitro; assay type: cell-based; conditions: human
Would you kindly list CC50 at 48 h for each of these compounds?

Known CC50 at 48 h results, listed for orientation:
INSERT INTO results (compound, observed_result) VALUES
  ('N#C[C@@]1(c2ccc3c(N)ncnn23)O[C@H](COC(=O)C2CCCCCC2)[C@@H](O)[C@H]1O', '38 µM'),
  ('CC(C)CC(=O)OC[C@H]1O[C@@](C#N)(c2ccc3c(N)ncnn23)[C@H](O)[C@@H]1O', '> 10 µM'),
  ('CC(C)C(=O)O[C@H]1[C@@H](OC(=O)C(C)C)[C@](C#N)(c2ccc3c(N)ncnn23)O[C@@H]1COC(=O)[C@@H](N)C(C)C', '> 50 µM'),
  ('CCCCCCCC(=O)OC[C@H]1O[C@@](C#N)(c2ccc3c(N)ncnn23)[C@H](O)[C@@H]1O', '> 10 µM');

Go through the items and report each one's CC50 at 48 h.
1. CC(C)[C@H](N)C(=O)OC[C@H]1O[C@@](C#N)(c2ccc3c(N)ncnn23)[C@H](O)[C@@H]1O
2. N#C[C@@]1(c2ccc3c(N)ncnn23)O[C@H](COC(=O)C2CC3(CCC3)C2)[C@@H](O)[C@H]1O
3. N#C[C@@]1(c2ccc3c(N)ncnn23)O[C@H](COC(=O)[C@@H](N)Cc2ccccc2)[C@@H](O)[C@H]1O

RESULT:
1. > 100 µM
2. > 10 µM
3. > 100 µM

Go through the items and report each one's CC50 at 48 h.
1. N#C[C@@]1(c2ccc3c(N)ncnn23)O[C@H](COC(=O)C2CCCC2)[C@@H](O)[C@H]1O
2. CCC(=O)OC[C@H]1O[C@@](C#N)(c2ccc3c(N)ncnn23)[C@H](OC(=O)CC)[C@@H]1OC(=O)CC
3. CC(=O)OC[C@H]1O[C@@](C#N)(c2ccc3c(N)ncnn23)[C@H](OC(C)=O)[C@@H]1OC(C)=O
4. CCC(CC)C(=O)OC[C@H]1O[C@@](C#N)(c2ccc3c(N)ncnn23)[C@H](O)[C@@H]1O
5. CC(C)[C@H](N)C(=O)OC[C@H]1O[C@@](C#N)(c2ccc3c(N)ncnn23)[C@@H]2OC(c3ccccc3)O[C@@H]21 (stereo partly shown)
6. N#C[C@@]1(c2ccc3c(N)ncnn23)O[C@H](CO)[C@H]2OC(c3ccccc3)O[C@H]21 (stereo partly shown)

RESULT:
40 µM
> 100 µM
> 50 µM
> 10 µM
> 71.2 µM
> 100 µM

Go through the items and report each one's CC50 at 48 h.
1. CC(C)(N)C(=O)OC[C@H]1O[C@@](C#N)(c2ccc3c(N)ncnn23)[C@H](O)[C@@H]1O
2. CC(C)C(=O)OC[C@H]1O[C@@](C#N)(c2ccc3c(N)ncnn23)[C@H](OC(=O)C(C)C)[C@@H]1OC(=O)C(C)C
3. CCCCCC(=O)OC[C@H]1O[C@@](C#N)(c2ccc3c(N)ncnn23)[C@H](O)[C@@H]1O

RESULT:
> 50 µM
> 50 µM
24 µM
